Assign Clearance of Human microsome to each entry below.
Assay: Human microsome stability assay
Format: in vitro ADME
Conditions: human liver microsomes, 1 μM test compound, 0.5 mg/mL microsomal protein, 37° C., pH 7.4, 0-30 minutes
Express the reported value numerically, then name its unit.

input: # Clearance of Human microsome lookup, item Cc1ccc(-c2cc(=O)c3cccc(Cl)c3o2)c(O[C@H]2C[C@@H](C(=O)O)C2)c1
output: 6.15 mL/min/kg

input: Entry Cc1ccc(-c2cc(=O)c3cccc(Cl)c3o2)c(O[C@H]2C[C@@H](C(=O)NS(=O)(=O)C3CC3)C2)c1 : reported Clearance of Human microsome = ?
output: 6.15 mL/min/kg

input: Which Clearance of Human microsome is listed for O=c1cc(-c2ccc(C(F)(F)F)cc2OCCO[C@H]2C[C@@H](C(=O)O)C2)oc2c(Cl)cccc12 ?
output: 6.81 mL/min/kg

input: Reported Clearance of Human microsome for O=c1cc(-c2ccc(F)cc2OCCO[C@H]2C[C@@H](C(=O)O)C2)oc2c(Cl)cccc12 : what is it?
output: 6.15 mL/min/kg

input: Look up Clearance of Human microsome: Cc1cc(-c2cc(=O)c3cccc(Cl)c3o2)c(OCCC(=O)O)cc1Cl
output: 6.66 mL/min/kg

input: Requested field: Clearance of Human microsome. Item: O=c1cc(-c2cc(F)ccc2OCCO[C@H]2C[C@@H](C(=O)O)C2)oc2c(Cl)cccc12
output: 6.15 mL/min/kg

input: Entry O=c1cc(-c2ccc(C(F)(F)F)cc2O[C@H]2C[C@H](C(=O)NS(=O)(=O)C3CC3)C2)oc2c(Cl)cccc12 : reported Clearance of Human microsome = ?
output: 6.15 mL/min/kg

====

Assay: Human microsome stability assay
Assay type: in vitro ADME
Conditions: human liver microsomes, 1 μM test compound, 0.5 mg/mL microsomal protein, 37° C., pH 7.4, 0-30 minutes
value.kind: Clearance of Human microsome

input: So what does the record say about Clearance of Human microsome for O=c1cc(-c2cc(C(F)(F)F)c(Br)cc2OCCO[C@H]2C[C@H](C(=O)O)C2)oc2c(Cl)cccc12 [Example C042-B] ?
output: 6.15 mL/min/kg

input: Requested read-out: Clearance of Human microsome. Entry: COc1ccc(-c2cc(=O)c3cccc(Cl)c3o2)c(OCCO[C@H]2C[C@@H](C(=O)O)C2)c1 [Example C039-A]
output: 6.15 mL/min/kg

input: Param item = O=c1cc(-c2cc(OC(F)F)c(OC(F)F)cc2OCCO[C@H]2C[C@@H](C(=O)O)C2)oc2c(Cl)cccc12 [Example C087] ; retrieve measured Clearance of Human microsome.
output: 6.15 mL/min/kg

input: # Clearance of Human microsome lookup, item O=C(O)[C@@H]1CCCN1C(=O)CCOc1cc(Br)ccc1-c1cc(=O)c2cccc(Cl)c2o1 [Example A076]
output: 6.15 mL/min/kg

input: Recorded Clearance of Human microsome for CC1(C)C(=O)Nc2cc(-c3cc(=O)c4cccc(Cl)c4o3)c(OCCO[C@H]3C[C@@H](C(=O)O)C3)cc21 [Example C092] , please?
output: 6.15 mL/min/kg

input: For the compound CN1C(=O)C(C)(C)c2cc(OCCO[C@H]3C[C@@H](C(=O)O)C3)c(-c3cc(=O)c4cccc(Cl)c4o3)cc21 [Example C093] , what Clearance of Human microsome is on record?
output: 6.15 mL/min/kg

input: What value of measured Clearance of Human microsome is listed for Cc1cc(-c2cc(=O)c3cccc(Cl)c3o2)c(O[C@H]2C[C@@H](C(=O)O)C2)cc1Cl [Example B012-A] ?
output: 6.15 mL/min/kg

input: Quick check: Clearance of Human microsome of Cc1cc(-c2cc(=O)c3cccc(Cl)c3o2)c(OCCCOCC(=O)O)cc1Br [Example C011] ?
output: 6.15 mL/min/kg

input: Record request: Clearance of Human microsome value, item O=C1CCCN1c1ccc(-c2cc(=O)c3cccc(Cl)c3o2)c(OCCO[C@H]2C[C@@H](C(=O)O)C2)c1 [Example C063-A]
output: 9.09 mL/min/kg

input: Request the reported Clearance of Human microsome associated with Cc1ccc(-c2cc(=O)c3cccc(Br)c3o2)c(OCCC(=O)O)c1 [Example A024]
output: 6.61 mL/min/kg

input: Bench note: what Clearance of Human microsome did Cc1ccc(OCCO[C@H]2C[C@H](C(=O)O)C2)c(-c2cc(=O)c3cccc(Cl)c3o2)c1 [Example C050-B] show?
output: 6.15 mL/min/kg

input: // Clearance of Human microsome lookup, key: O=c1cc(-c2ccc(C(F)(F)F)cc2OCCO[C@H]2C[C@@H](C(=O)O)C2)oc2c(Cl)ccc(O)c12 [Example C099]
output: 7.11 mL/min/kg

input: Form field: reported Clearance of Human microsome of O=c1cc(-c2ccc(C3CC3)cc2O[C@H]2C[C@@H](C(=O)O)C2)oc2c(Cl)cccc12 [Example B035-A]
output: 8.46 mL/min/kg

input: For COc1cc(OCC(=O)NS(=O)(=O)C2CC2)c(-c2cc(=O)c3cccc(Cl)c3o2)cc1OC [Example A091] , what is its reported Clearance of Human microsome?
output: 6.15 mL/min/kg

input: What does the record list as Clearance of Human microsome for COc1cc(OCCO[C@H]2C[C@@H](C(=O)NS(=O)(=O)C3CC3)C2)c(-c2cc(=O)c3cccc(Cl)c3o2)cc1OC [Example C119] ?
output: 6.39 mL/min/kg

====

Tested on: HBsAg in HBV-infected PHH
Test: Cryopreserved primary human hepatocytes (PHH) HBV infection assay, extracellular HBsAg (CLIA)
Format: cell-based
Details: Hepatitis B virus, Hepatocyte, 216 h, read-out: HBsAg IC50, Cryopreserved PHH infected with HBV, 9 days post-compound treatment, extracellular HBsAg
Friendly reminder: IC50 below 6 µM is 1, at or above is 0.

input: Please determine if COc1cc(OCCO[C@H]2C[C@@H](C(=O)NS(C)(=O)=O)C2)c(-c2cc(=O)c3cccc(Cl)c3o2)cc1OC is below 6 µM in terms of IC50.
output: 0

input: Identify whether the molecule CS(=O)(=O)NC(=O)[C@H]1C[C@@H](Oc2cc(OC(F)(F)F)ccc2-c2cc(=O)c3cccc(Cl)c3o2)C1 records IC50 below 6 µM.
output: 1

input: Check if IC50 falls below 6 µM for Cc1ccc(-c2cc(=O)c3cccc(Br)c3o2)c(OCCC(=O)O)c1 .
output: 1

input: A record lists O=c1cc(-c2ccc(Br)cc2OC[C@H]2C[C@H](C(=O)O)C2)oc2c(Cl)cccc12 . Is its IC50 below 6 µM?
output: 1

input: Given O=C(O)[C@H]1CCN(C(=O)COc2cc(C(F)(F)F)ccc2-c2cc(=O)c3cccc(Cl)c3o2)C1 , is recorded IC50 strictly lower than 6 µM?
output: 0

input: Given O=C(O)COCCCOc1cc(OC(F)(F)F)ccc1-c1cc(=O)c2cccc(Cl)c2o1 , is recorded IC50 strictly lower than 6 µM?
output: 0

input: Consider COc1cc(-c2cc(=O)c3cccc(Cl)c3o2)c(OCCC(=O)O)cc1C(F)(F)F . Does its IC50 lie strictly below 6 µM?
output: 0

====

System: HBsAg in HBV-infected PHH
Experiment: Cryopreserved primary human hepatocytes (PHH) HBV infection assay, extracellular HBsAg (CLIA)
Format: cell-based
Details: Hepatitis B virus, Hepatocyte, 216 h, read-out: HBsAg IC50, Cryopreserved PHH infected with HBV, 9 days post-compound treatment, extracellular HBsAg
value.kind: IC50
Don't forget the unit after the number, please.

input: Which IC50 value belongs to O=C(O)COCCCOc1cc2c(cc1-c1cc(=O)c3cccc(Cl)c3o1)OCO2 ?
output: 3.36 µM

input: For O=C(O)CCOc1cc(Br)ccc1-c1cc(=O)c2cccc(Cl)c2o1 , what is its reported IC50?
output: 6.61 µM

input: Give the measured IC50 of COc1cc(-c2cc(=O)c3cccc(Cl)c3o2)c(OCCCOCC(=O)O)cc1Cl .
output: 7.14 µM

input: // returns reported IC50 for input O=C(O)CCOc1cc(Br)cc(F)c1-c1cc(=O)c2cccc(Cl)c2o1
output: 7.5 µM

input: Quick one: IC50 for O=C(CCOc1cc(C(F)(F)F)ccc1-c1cc(=O)c2cccc(Cl)c2o1)NS(=O)(=O)C1CC1 ?
output: 1.02 µM

input: IC50 lookup needed for O=C(O)[C@@H]1C[C@@H](Oc2cc(C(F)(F)F)ccc2-c2cc(=O)c3cccc(Cl)c3o2)CN1S(=O)(=O)c1ccccc1 , thanks.
output: 1.31 µM

input: Quick one: IC50 for O=C(O)CCOc1cc(OC(F)(F)F)ccc1-c1cc(=O)c2cccc(Br)c2o1 ?
output: 0.754 µM

input: So what's the measured IC50 for this one? O=c1cc(-c2ccc(F)cc2OCCO[C@H]2C[C@@H](C(=O)O)C2)oc2c(Cl)cccc12
output: 4.69 µM
